- Study Target: T1, biotinylated recombinant mouse IL-12Rβ2 (mouse, UniProt P97378 24-637, random biotinylated)
- T1 construct: Recombinant protein produced in-house, biotinylated; also called mIL-12RB2; mouse IL-12RB2
- T1 sequence: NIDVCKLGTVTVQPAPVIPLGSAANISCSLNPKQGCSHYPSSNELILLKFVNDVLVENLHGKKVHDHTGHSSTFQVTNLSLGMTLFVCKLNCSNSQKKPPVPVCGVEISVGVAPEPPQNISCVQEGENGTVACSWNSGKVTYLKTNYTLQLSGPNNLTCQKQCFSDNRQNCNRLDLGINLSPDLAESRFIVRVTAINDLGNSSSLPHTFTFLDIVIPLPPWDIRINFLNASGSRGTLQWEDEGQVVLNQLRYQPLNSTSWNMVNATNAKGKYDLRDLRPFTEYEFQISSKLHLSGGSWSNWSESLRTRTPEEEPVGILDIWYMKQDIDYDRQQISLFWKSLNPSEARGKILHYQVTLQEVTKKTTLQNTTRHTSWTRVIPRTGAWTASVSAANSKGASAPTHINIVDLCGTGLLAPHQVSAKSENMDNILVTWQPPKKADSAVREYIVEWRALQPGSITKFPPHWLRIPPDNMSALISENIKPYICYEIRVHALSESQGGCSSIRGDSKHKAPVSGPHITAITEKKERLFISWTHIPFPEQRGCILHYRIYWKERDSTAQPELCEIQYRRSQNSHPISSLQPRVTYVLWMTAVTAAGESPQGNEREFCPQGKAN
- Assay Comment: ELISA, periplasmic extract on biotinylated mIL-12Rβ2, signal over control wells
Recorded Metric: ELISA binding mIL-12RB2/control (ratio)
Please respond with the number in ratio and leave the unit unwritten.

Answered examples (3):
Binder	Result Units	ELISA binding mIL-12RB2/control
anti-IL-12Rβ2 VHH clone 20476 (VHH, not shown: small tags and cut ends, tested as periplasmic extract; also called 2CAM20) VHH: QVQLQESGGGSVQAGGSLRLSCAVFGLSFKDYSMSWFRQAPGKEREFVAGISSGGSWIGDITSYADSVKGRFTISRDNAKNMIYLQMNSLKPDDTGVYYCAAASYGTRYYVGSTANEYTTWGQGTQVTVSS	ratio	7.26
anti-IL-12Rβ2 VHH clone 20493 (VHH, not shown: small tags and cut ends, tested as periplasmic extract; also called 2CAM62) VHH: QVQLQESGGGLVQAEGSLRLSCVASGRTFSSYGMGWFRQAPGKEREFVTGISSAGSWIGDITSYADSVKGRFTISRDNAKNILYLQMNSLKPEDTAVYYCAAAYHGSRYYVGSTANEYTTWGQGTQVTVSS	ratio	14.5
anti-IL-12Rβ2 VHH clone 20484 (VHH, not shown: small tags and cut ends, tested as periplasmic extract; also called 2CAM42) VHH: QVQLQESGGGLVQPGGSLRLSCAASGRTFSNSVMGWFRQAPGKEREFVAALMWSAGSEFYTDSVKGRFSISGDGAKNTVYLQMNSLKAEDTAVYYCAAKNPPHRWSDIGKSPHYEYWGQGTQVTVSS	ratio	4.86

Let's switch to this binder now.
Q: # lookup: ELISA binding mIL-12RB2/control of anti-IL-12Rβ2 VHH clone 20444 (VHH, not shown: small tags and cut ends, tested as periplasmic extract; also called 2CRM18) VHH: QVQLQESGGGLVQAGGSLRLSCTASGSIFAIDDMYWYRQAPGKQREFVAYITATNSANYLDSVNGRFTISRDNAKNSVYLQMNSLKPEDTAVYYCNAKQIVGFQIDEYWGQGTQVTVSS
A: 4.68
